B1: scFv; the commonest letter at each place (parent)
chain 1: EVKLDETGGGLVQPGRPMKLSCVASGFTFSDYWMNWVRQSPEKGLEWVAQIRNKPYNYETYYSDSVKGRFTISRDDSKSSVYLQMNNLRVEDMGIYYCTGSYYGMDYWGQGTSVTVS
chain 2: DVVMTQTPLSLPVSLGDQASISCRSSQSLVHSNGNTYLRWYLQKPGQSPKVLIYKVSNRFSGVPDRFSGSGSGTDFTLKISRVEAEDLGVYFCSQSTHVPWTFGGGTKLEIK

variants of: B1; experiment: Kd (Tite-Seq); conditions: with fluorescein; format: scFv 4-4-20, heavy + light
PROPERTY: Kd

MUTANT_ID	Kd
chain 1 F29I Y32E	≥ 10 µM
chain 1 F29Q Y32L	≥ 10 µM
chain 1 D106W W108F	≥ 10 µM
chain 1 G109E	≥ 10 µM
chain 1 M105R G109W	≥ 10 µM

## Task Any idea what its Kd is? The variant is chain 1 T28S V37Q
## Result 0.00184 µM

## Task Give the measured Kd of chain 1 Y102M Y103T .
## Result ≥ 10 µM

Data provenance: the FLAb antibody collection (doi:10.7554/elife.23156)
